target: ABCA1 (Mus musculus); assay: Cholesterol efflux from [3H]cholesterol-labeled ABCA1-expressing J774 mouse macrophages; assay type: cell-based; set-up: to upregulate cellular ABCA1 protein; endogenous in cells; host or cells: J774 mouse macrophages; conditions: concentration dependence curves
property.measured: efficiency of ABCA1 cholesterol efflux (concentration dependence)

substance	assay.result
R23→Q: SEQ ID NO:5 with arginine 23 replaced by glutamine (EVRSKLEEWFAAFREFFEEFLAQLKS; S1 amphipathic alpha-helix polypeptide core sequence selectively binds HDL, high-affinity ligand for ATP- binding cassette transporter A1 (ABCA1), ABCA1-lipid cholesterol efflux, ABCA1-stablization, anti-oxidant and anti-inflammatory activity)	high efficiency
R14→Q: SEQ ID NO:5 with arginine 14 replaced by glutamine (EVRSKLEEWFAAFQEFFEEFLARLKS; S1 amphipathic alpha-helix polypeptide core sequence selectively binds HDL, high-affinity ligand for ATP- binding cassette transporter A1 (ABCA1), ABCA1-lipid cholesterol efflux, ABCA1-stablization, anti-oxidant and anti-inflammatory activity)	high efficiency

---

biological target: ABCA1 (Mus musculus, UniProt P41233); experiment: Cholesterol efflux from [3H]cholesterol-labeled ABCA1-expressing J774 mouse macrophages; type: cell-based; parameters: to upregulate cellular ABCA1 protein; endogenous in cells; host or cells: J774 mouse macrophages; conditions: no cAMP
Sequence (P41233 whole entry): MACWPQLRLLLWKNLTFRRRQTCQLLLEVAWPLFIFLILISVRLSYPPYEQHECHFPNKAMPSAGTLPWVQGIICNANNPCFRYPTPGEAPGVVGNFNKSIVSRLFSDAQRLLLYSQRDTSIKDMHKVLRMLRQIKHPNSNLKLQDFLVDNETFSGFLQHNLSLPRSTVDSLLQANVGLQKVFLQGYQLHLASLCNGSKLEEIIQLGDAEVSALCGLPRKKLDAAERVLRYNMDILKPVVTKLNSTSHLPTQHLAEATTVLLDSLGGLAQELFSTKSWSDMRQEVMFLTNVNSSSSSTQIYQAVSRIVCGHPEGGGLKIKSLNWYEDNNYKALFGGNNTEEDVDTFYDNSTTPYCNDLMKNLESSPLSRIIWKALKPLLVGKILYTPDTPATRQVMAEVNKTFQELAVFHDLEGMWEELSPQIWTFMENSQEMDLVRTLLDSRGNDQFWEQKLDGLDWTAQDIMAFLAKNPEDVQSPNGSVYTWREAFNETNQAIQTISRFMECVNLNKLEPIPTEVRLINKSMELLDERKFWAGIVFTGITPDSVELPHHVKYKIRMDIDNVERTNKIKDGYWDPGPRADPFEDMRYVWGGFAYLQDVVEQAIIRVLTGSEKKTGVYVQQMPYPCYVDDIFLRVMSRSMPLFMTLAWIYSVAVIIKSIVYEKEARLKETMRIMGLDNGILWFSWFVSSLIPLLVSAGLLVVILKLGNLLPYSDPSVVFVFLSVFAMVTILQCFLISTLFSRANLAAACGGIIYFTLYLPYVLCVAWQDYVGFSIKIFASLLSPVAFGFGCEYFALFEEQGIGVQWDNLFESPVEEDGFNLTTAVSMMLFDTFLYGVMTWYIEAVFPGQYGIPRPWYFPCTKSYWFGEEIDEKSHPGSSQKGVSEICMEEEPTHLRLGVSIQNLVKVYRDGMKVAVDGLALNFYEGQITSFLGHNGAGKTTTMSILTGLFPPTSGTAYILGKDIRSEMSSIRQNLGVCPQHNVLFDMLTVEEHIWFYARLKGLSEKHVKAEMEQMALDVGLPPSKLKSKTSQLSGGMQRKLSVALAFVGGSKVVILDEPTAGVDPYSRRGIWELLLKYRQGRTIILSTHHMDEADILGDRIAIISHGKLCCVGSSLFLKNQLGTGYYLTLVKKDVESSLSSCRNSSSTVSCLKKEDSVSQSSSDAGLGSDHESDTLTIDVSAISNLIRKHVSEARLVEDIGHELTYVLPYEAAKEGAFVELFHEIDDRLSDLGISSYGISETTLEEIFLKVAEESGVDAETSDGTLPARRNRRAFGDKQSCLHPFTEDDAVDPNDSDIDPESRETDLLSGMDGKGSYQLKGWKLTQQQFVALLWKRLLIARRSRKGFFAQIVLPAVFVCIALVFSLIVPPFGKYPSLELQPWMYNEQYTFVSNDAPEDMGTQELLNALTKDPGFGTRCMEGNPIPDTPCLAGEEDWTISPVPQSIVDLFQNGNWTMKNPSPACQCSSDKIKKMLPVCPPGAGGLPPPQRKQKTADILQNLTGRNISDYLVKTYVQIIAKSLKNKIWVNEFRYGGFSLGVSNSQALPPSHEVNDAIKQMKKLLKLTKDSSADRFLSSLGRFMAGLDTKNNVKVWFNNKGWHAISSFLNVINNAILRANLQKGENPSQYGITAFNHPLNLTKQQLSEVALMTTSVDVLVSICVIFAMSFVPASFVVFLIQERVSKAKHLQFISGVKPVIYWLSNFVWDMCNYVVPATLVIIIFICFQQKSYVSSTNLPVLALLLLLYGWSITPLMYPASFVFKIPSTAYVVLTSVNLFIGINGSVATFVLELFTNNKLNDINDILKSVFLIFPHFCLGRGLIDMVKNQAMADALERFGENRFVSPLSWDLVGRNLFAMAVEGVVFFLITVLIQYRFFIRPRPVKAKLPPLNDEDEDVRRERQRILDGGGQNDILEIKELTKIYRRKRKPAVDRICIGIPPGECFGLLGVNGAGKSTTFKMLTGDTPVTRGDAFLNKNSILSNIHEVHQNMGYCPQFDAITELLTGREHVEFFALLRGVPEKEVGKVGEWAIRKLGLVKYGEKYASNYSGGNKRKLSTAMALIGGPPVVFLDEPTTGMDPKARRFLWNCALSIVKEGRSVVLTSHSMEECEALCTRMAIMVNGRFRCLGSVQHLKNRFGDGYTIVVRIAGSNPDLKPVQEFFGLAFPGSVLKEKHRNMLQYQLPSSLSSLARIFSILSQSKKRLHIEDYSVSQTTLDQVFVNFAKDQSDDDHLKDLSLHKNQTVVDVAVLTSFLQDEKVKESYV
property.measured: cholesterol efflux from macrophages not induced for ABCA1 (non-specific)

substance	assay.result
EVRSKLEEWFAAFREFFEEFLARLKS (S1 amphipathic alpha-helix polypeptide core sequence selectively binds HDL, high-affinity ligand for ATP- binding cassette transporter A1 (ABCA1), ABCA1-lipid cholesterol efflux, ABCA1-stablization, anti-oxidant and anti-inflammatory activity) [SEQ ID NO:5]	Low efflux
R3, 14, 23→K3, 14, 23: SEQ ID NO:5 with lysine in place of arginine at positions 3, 14 and 23 (EVKSKLEEWFAAFKEFFEEFLAKLKS; S1 amphipathic alpha-helix polypeptide core sequence selectively binds HDL, high-affinity ligand for ATP- binding cassette transporter A1 (ABCA1), ABCA1-lipid cholesterol efflux, ABCA1-stablization, anti-oxidant and anti-inflammatory activity)	Low efflux
